Reference for the values: patent EP4813463A2

experiment: Pharmacokinetic study in rats; assay type: in vivo; settings: rat, plasma; Sprague-Dawley rats, oral, 5 mg/kg, solution
metricName: bioavailability (%)
Return type: number; implicit unit %.

Inquiry: Provide bioavailability value for the following compound: [2H]C([2H])([2H])NC(=O)c1cnc(NC(=O)C2CC2)cc1Nc1nn(C)c2ccc([C@H](OC([2H])([2H])[2H])C(F)(F)F)c(OC)c12 [Example 55A]
Reply text: 48.6

====

experiment: Kinetic solubility; assay type: physicochemical; conditions: phosphate buffer, pH 7.4, aqueous buffer, kinetic from dmso stock, 100 mM pH 7.4 phosphate buffer, 1% DMSO, room temperature, read-out: Kinetics Solubility_PBS7.4
metricName: solubility kinetic at 2 h (µM)
Return type: number; implicit unit µM.

Inquiry: Provide solubility kinetic at 2 h value for the following molecule: COC(=O)c1cnc(NC(=O)C2CC2)cc1Nc1nn(C)c2ccc([C@H](O)C(F)(F)F)c(OC)c12 [Example 48A]
Reply text: 6.98

Inquiry: Provide solubility kinetic at 2 h value for the following molecule: "[2H]C([2H])([2H])NC(=O)c1cnc(NC(=O)C2CC2)cc1Nc1cnn2ccc(C)c(OC)c12"
Reply text: 57.4

Inquiry: Provide solubility kinetic at 2 h value for the following molecule: "[2H]C([2H])([2H])NC(=O)c1cnc(NC(=O)C2CC2)cc1Nc1cnn2ccc([C@H](O)C(F)(F)F)c(OC)c12"
Reply text: 52.1

Inquiry: Provide solubility kinetic at 2 h value for the following molecule: [2H]C([2H])([2H])NC(=O)c1cnc(NC(=O)[C@@H]2C[C@@H]2F)cc1Nc1cnn2cnc(C(C)C(F)(F)F)c(OC)c12 (stereo partly drawn)
Reply text: 37.2

Inquiry: Provide solubility kinetic at 2 h value for the following molecule: "[2H]C([2H])([2H])NC(=O)c1cnc(NC(=O)C2CC2)nc1Nc1cnn2ccc([C@H](O)C(F)(F)F)c(OC)c12"
Reply text: 59.4

Inquiry: Provide solubility kinetic at 2 h value for the following molecule: "[2H]C([2H])([2H])NC(=O)c1cnc(NC(=O)C2CC2)cc1Nc1cnn2ccc(Cl)c(OC)c12"
Reply text: 15.1

Inquiry: Provide solubility kinetic at 2 h value for the following molecule: [2H]C([2H])([2H])NC(=O)c1cnc(NC(=O)C2CC2)cc1Nc1cnn2ccc(C(C)C(F)(F)F)c(OC)c12 (stereo not drawn) [Example 9]
Reply text: 60

Inquiry: Provide solubility kinetic at 2 h value for the following molecule: [2H]C([2H])([2H])NC(=O)c1cnc(NC(=O)C2CC23CC3)cc1Nc1cnn2ccc([C@H](O)C(F)(F)F)c(OC)c12 (single isomer, unassigned) [Example 32A]
Reply text: 25.5

Inquiry: Provide solubility kinetic at 2 h value for the following molecule: "[2H]C([2H])([2H])NC(=O)c1cnc(NC(=O)[C@@H]2C[C@@H]2F)cc1Nc1cnn2ccc(C#N)c(OC)c12"
Reply text: 11.2

Inquiry: Provide solubility kinetic at 2 h value for the following molecule: [2H]C([2H])([2H])NC(=O)c1cnc(NC(=O)C2CC2)cc1Nc1cnn2ccc(C(O)C(F)(F)F)c(OC)c12 (stereo not drawn)
Reply text: 42.9

Inquiry: Provide solubility kinetic at 2 h value for the following molecule: "[2H]C([2H])([2H])NC(=O)c1cnc(NC(=O)C2CC2)cc1Nc1cnn2ccc(C#N)c(OC)c12"
Reply text: 15.1

Inquiry: Provide solubility kinetic at 2 h value for the following molecule: [2H]C([2H])([2H])NC(=O)c1cnc(NC(=O)C2CC2)cc1Nc1nn(C)c2ccc([C@H](OC)C(F)(F)F)c(OC)c12 [Example 46A]
Reply text: 8.16
